Values compiled from patent US20180016306A1.

molecular target: aRSV-Fab (Fab fragment of anti-RSV monoclonal IgG Palivizumab, Synagis); assay: SPR (Biacore 3000), aRSV-Fab on CM5 chip, peptide flowed, 25 C, pH 7.4, 1:1 fit

BINDER | koff [s⁻¹]
LB5t-T16H.1d (designed binder) GPLGSEQVTIKENIYFEDGTVQHATFKGTFAEATAEAYRYADLLSKEHGKYTADLEDGGYTINIRFAG | 0.0159
LB5t-T18H.1d (designed binder) GPLGSEQVTIKENIYFEDGTVQTAHFKGTFAEATAEAYRYADLLSKEHGKYTADLEDGGYTINIRFAG | 0.036
LB5t-T18D.1d (designed binder) GPLGSEQVTIKENIYFEDGTVQTADFKGTFAEATAEAYRYADLLSKEHGKYTADLEDGGYTINIRFAG | 0.0467
LB5t-T16D.1d (designed binder) GPLGSEQVTIKENIYFEDGTVQDATFKGTFAEATAEAYRYADLLSKEHGKYTADLEDGGYTINIRFAG | 0.0265
LB5t-Q15H.1d (designed binder) GPLGSEQVTIKENIYFEDGTVHTATFKGTFAEATAEAYRYADLLSKEHGKYTADLEDGGYTINIRFAG | 0.0485
